Tested on: NCI-H841 (Small Cell Lung Carcinoma)
Test: Bliss excess, mean over the matrix (fraction); higher = more synergy
Quantity kind: Bliss excess

Compound	Result number
N#Cc1cnc(Nc2cc(NC[C@H]3CNCCO3)c(C(F)(F)F)cn2)cn1 [SRA737] + C=CCn1c(=O)c2cnc(Nc3ccc(N4CCN(C)CC4)cc3)nc2n1-c1cccc(C(C)(C)O)n1 [AZD1775] (first compound max 10 µM, partner max 1 µM)	0.0292
Cn1cnc2c(F)c(Nc3ccc(Br)cc3Cl)c(C(=O)NOCCO)cc21 [Selumetinib] + CCN(CCO)CCCOc1ccc2c(Nc3cc(CC(=O)Nc4cccc(F)c4)[nH]n3)ncnc2c1 [AZD2811] (first compound max 10 µM, 7x7, partner max 1 µM)	-0.0341
COc1nnc2ccc(N3CCC(c4ccc(OCCN5CCN(C)C(=O)[C@H]5C)cc4)CC3)nn12 [AZD5153] + Cn1cnc2c(F)c(Nc3ccc(Br)cc3Cl)c(C(=O)NOCCO)cc21 [Selumetinib] (first compound max 1 µM, 7x7, partner max 10 µM)	-0.0121
COc1nnc2ccc(N3CCC(c4ccc(OCCN5CCN(C)C(=O)[C@H]5C)cc4)CC3)nn12 [AZD5153] + C=CCn1c(=O)c2cnc(Nc3ccc(N4CCN(C)CC4)cc3)nc2n1-c1cccc(C(C)(C)O)n1 [AZD1775] (first compound max 1 µM, partner max 1 µM)	-0.0299

====

Test system: SW620 (Colorectal Carcinoma)
Test: Bliss excess, mean over the matrix (fraction); higher = more synergy
Listing: Bliss excess of selected molecules

Molecule	Bliss excess
Cc1c2c(nn1C)CSCc1cc(n(C)n1)CSc1cc(c3ccccc3c1)OCCCc1c(C(=O)O)n(C)c3c-2c(Cl)ccc13 [AZD5991] + Cc1cc2ncnn2cc1Nc1ncc2c(n1)n(C1CCOCC1)c(=O)n2C [AZD7648] (first compound max 1 µM, 7x7, partner max 10 µM)	-0.0421
Cc1c2c(nn1C)CSCc1cc(n(C)n1)CSc1cc(c3ccccc3c1)OCCCc1c(C(=O)O)n(C)c3c-2c(Cl)ccc13 [AZD5991] + Cn1cnc2c(F)c(Nc3ccc(Br)cc3Cl)c(C(=O)NOCCO)cc21 [Selumetinib] (first compound max 1 µM, 7x7, partner max 3 µM)	0.0005

====

Listing: combination Emax of selected compounds
System: KYSE-220 (Esophageal Squamous Cell Carcinoma)
Assay: combination Emax (second highest fraction inhibited in the dose matrix, 72 h); higher = more inhibition; extreme values may be limits of the assay

Compound	combination Emax
Cc1c2c(nn1C)CSCc1cc(n(C)n1)CSc1cc(c3ccccc3c1)OCCCc1c(C(=O)O)n(C)c3c-2c(Cl)ccc13 [AZD5991] + C=CCn1c(=O)c2cnc(Nc3ccc(N4CCN(C)CC4)cc3)nc2n1-c1cccc(C(C)(C)O)n1 [AZD1775] (first compound max 1 µM, partner max 1 µM)	0.848
CC1(C)CCC(CN2CCN(c3ccc(C(=O)NS(=O)(=O)c4ccc(NCC5CCOCC5)c([N+](=O)[O-])c4)c(Oc4cnc5[nH]ccc5c4)c3)CC2)=C(c2ccc(Cl)cc2)C1 [Venetoclax] + CN(C)CCCOc1ccc(-c2ccc3ncc4c(c3c2)n(C2CCOCC2)c(=O)n4C)cn1 [AZD0156] (first compound max 1 µM, 7x7, partner max 1 µM)	0.195
CN(CCO)CC[C@H](CSc1ccccc1)Nc1ccc(S(=O)(=O)NC(=O)c2ccc(N3CCC([C@@H](O)c4ccccc4-c4ccc(Cl)cc4)CC3)cc2)cc1S(=O)(=O)C(F)(F)F [AZD4320] + C=CCn1c(=O)c2cnc(Nc3ccc(N4CCN(C)CC4)cc3)nc2n1-c1cccc(C(C)(C)O)n1 [AZD1775] (first compound max 1 µM, partner max 1 µM)	0.795
